# Test system: 843126-344-R-J1-PDC complex spheroid viability;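 note: spheroids exposed to drugs for seven days before readout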
# PROTOCOL_DESCRIPTION: Anticancer human tumor 843126-344-R-J1-PDC patient-derived melanoma cell line growth inhibition [POLQ]
# CONDITION_PARAMETERS: second compound 0.316 µM; first compound 0.000316 µM; stronger effect = lower value
VALUE_TYPE: viability, T/C (%)
Lab book: enter the figure in %, no units written.

Requested read-out viability, T/C, target or system 843126-344-R-J1-PDC complex spheroid viability, entry CC[C@@]1(O)C(=O)OCc2c1cc1n(c2=O)Cc2cc3c(CN(C)C)c(O)ccc3nc2-1 + Cc1cccc(N(C)C(=O)C2C(O)CCN2c2nc(C)cc(C(F)(F)F)c2C#N)c1;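 note: spheroids exposed to drugs for seven days before readout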
106

Requested read-out viability, T/C, target or system 843126-344-R-J1-PDC complex spheroid viability, entry Cn1ncnc1[C@H]1c2n[nH]c(=O)c3cc(F)cc(c23)N[C@@H]1c1ccc(F)cc1 + Nc1ccc(C#CCN(C(=O)Cc2ncc(C(F)(F)F)cc2C(F)(F)F)c2ccc(F)cc2)nn1;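 note: spheroids exposed to drugs for seven days before readout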
108

Requested read-out viability, T/C, target or system 843126-344-R-J1-PDC complex spheroid viability, entry CC[C@@]1(O)C(=O)OCc2c1cc1n(c2=O)Cc2cc3c(CN(C)C)c(O)ccc3nc2-1 + COC1C(OC(N)=O)C(O)C(Oc2ccc3c(O)c(NC(=O)c4ccc(O)c(CC=C(C)C)c4)c(=O)oc3c2C)OC1(C)C;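 note: spheroids exposed to drugs for seven days before readout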
114
